biological target: Nuclear receptor subfamily 1 group I member 2 (Rattus norvegicus); test: Rat pregnane X receptor (rPXR) activation by small molecules, qHTS assay (AID 1346983); conditions: rPXR luciferase reporter cells, One-Glo luminescence, 24 h; stronger effect = higher value; note: % is set by controls: 0 for no effect and ±100 for the full control effect; nearly all actives have a fitted effect of over 20% in size
Inconclusive results are not listed. Calls of active or inactive are those of the source. Calls come from the whole dose curve; as a rule, active = well fitted activation curve with a large enough effect in the repeat runs; inconclusive = weak or mixed curves; inactive = no such curve, though single readings can be large or run the other way.
readout-name: max activation

The following compounds have reported results that may help.
INSERT INTO assay_data (compound, readout_name, result) VALUES
  ('OC[C@H]1O[C@@](CO)(O[C@H]2O[C@H](CO)[C@@H](O)[C@H](O)[C@H]2O)[C@@H](O)[C@@H]1O', 'max activation', '0.408% (inactive)'),
  ('CCc1ccc(CCOc2ccc(CC3SC(=O)NC3=O)cc2)nc1 (stereo not drawn)', 'max activation', '-8.65% (inactive)'),
  ('O=C(O)c1cc(O)c(O)c(O)c1', 'max activation', '-1.49% (inactive)'),
  ('CCN(CC)CCCC(C)Nc1ccnc2cc(Cl)ccc12 (stereo not drawn)', 'max activation', '-1.5% (inactive)'),
  ('CC1=CCC2CC1C2(C)C (stereo not drawn)', 'max activation', '-0.804% (inactive)');

## Task For the compound CC(c1cc2ccccc2s1)N(O)C(N)=O (stereo not drawn) , give its reported max activation.
## Result 1.87% (inactive)

## Task For the compound CC(=O)Nc1ccccc1 , give its reported max activation.
## Result -1.12% (inactive)

## Task For the compound C=CCNC(N)=S , give its reported max activation.
## Result -2.6% (inactive)
